Data origin: ChEMBL document CHEMBL2069171

Tested on: Escherichia coli
EXPERIMENTAL DETAILS: Antibacterial activity against Escherichia coli
Assay type: functional
Each item that follows carries a reported MIC90.
QUANTITY NAME: MIC90 (µg/mL)

> print(dat)
                                   compound  reported.measurement
1  C[C@@H](O)[C@H]1C(=O)N2C(C(=O)O)=C(S[C@@H]3CN[C@H](C(=O)N(C)C)C3)[C@H](C)[C@H]12                  0.06
2  CC(C)(O/N=C(\C(=O)N[C@@H]1C(=O)N(S(=O)(=O)O)[C@@H]1COC(=O)CNC(=O)c1cc(=O)c(O)cn1O)c1csc(N)n1)C(=O)O (stereo in doubt)                     1
3  CC(C)(O/N=C(\C(=O)N[C@@H]1C(=O)N(S(=O)(=O)O)[C@@H]1COC(=O)c1cc(-c2cc(=O)c(O)cn2O)no1)c1csc(N)n1)C(=O)O (stereo in doubt)                 0.125
4  CC(C)(O/N=C(\C(=O)N[C@@H]1C(=O)N(S(=O)(=O)O)[C@@H]1CNC(=O)c1cc(-c2cc(=O)c(O)cn2O)no1)c1csc(N)n1)C(=O)O (stereo in doubt)                     1
5  CC1(C)[C@H](NC(=O)/C(=N\OCc2cc(=O)c(O)cn2O)c2csc(N)n2)C(=O)N1OS(=O)(=O)O (stereo in doubt)                    16

====

EXPERIMENTAL DETAILS: Fraction unbound in mouse plasma
Assay type: ADME, cell-free
QUANTITY NAME: fraction unbound

> print(dat)
                                   compound  reported.measurement
1  CC(C)(O/N=C(\C(=O)N[C@@H]1C(=O)N(S(=O)(=O)O)[C@@H]1CNC(=O)c1cc(-c2cc(=O)c(O)cn2O)no1)c1csc(N)n1)C(=O)O (stereo in doubt)                  0.65

====

Each item that follows carries a reported clearance.
EXPERIMENTAL DETAILS: Total clearance in rat at 1 mg/kg, iv
Format: ADME, organism-based
Parameters: dose 1 mg/kg, route intravenous
MEASUREMENT PARAMETERS: in vivo
QUANTITY NAME: clearance (mL/min/kg)

> print(dat)
                                   molecule  quantity.name  unit.abbreviation  reported.measurement
1  CC(C)(O/N=C(\C(=O)N[C@@H]1C(=O)N(S(=O)(=O)O)[C@@H]1CNC(=O)c1cc(-c2cc(=O)c(O)cn2O)no1)c1csc(N)n1)C(=O)O (stereo in doubt)      clearance          mL/min/kg                   8.1
2  CC(C)(O/N=C(\C(=O)N[C@@H]1C(=O)N(S(=O)(=O)O)[C@@H]1COC(=O)CNC(=O)c1cc(=O)c(O)cn1O)c1csc(N)n1)C(=O)O (stereo in doubt)      clearance          mL/min/kg                   8.9
3  CC(C)(O/N=C(\C(=O)N[C@@H]1C(=O)N(S(=O)(=O)O)[C@@H]1COC(=O)c1cc(-c2cc(=O)c(O)cn2O)no1)c1csc(N)n1)C(=O)O (stereo in doubt)      clearance          mL/min/kg                  34.7

====

System: Pseudomonas aeruginosa
EXPERIMENTAL DETAILS: Antibacterial activity against Pseudomonas aeruginosa
Format: functional
QUANTITY NAME: MIC90

> print(dat)
                                   compound  reported.measurement
1  CC(C)(O/N=C(\C(=O)N[C@@H]1C(=O)N(S(=O)(=O)O)[C@@H]1COC(=O)CNC(=O)c1cc(=O)c(O)cn1O)c1csc(N)n1)C(=O)O (stereo in doubt)               2 µg/mL
2  CC(C)(O/N=C(\C(=O)N[C@@H]1C(=O)N(S(=O)(=O)O)[C@@H]1COC(=O)c1cc(-c2cc(=O)c(O)cn2O)no1)c1csc(N)n1)C(=O)O (stereo in doubt)               1 µg/mL
3  CC(C)(O/N=C(\C(=O)N[C@@H]1C(=O)N(S(=O)(=O)O)[C@@H]1CNC(=O)c1cc(-c2cc(=O)c(O)cn2O)no1)c1csc(N)n1)C(=O)O (stereo in doubt)            0.25 µg/mL
4  CC1(C)[C@H](NC(=O)/C(=N\OCc2cc(=O)c(O)cn2O)c2csc(N)n2)C(=O)N1OS(=O)(=O)O (stereo in doubt)               4 µg/mL
5  C[C@@H](O)[C@H]1C(=O)N2C(C(=O)O)=C(S[C@@H]3CN[C@H](C(=O)N(C)C)C3)[C@H](C)[C@H]12            > 64 µg/mL

====

Test system: Klebsiella pneumoniae
EXPERIMENTAL DETAILS: Antibacterial activity against Klebsiella pneumoniae
Assay type: functional
Each item that follows carries a reported MIC90.
QUANTITY NAME: MIC90 (µg/mL)

> print(dat)
                                   compound  quantity.name  unit.abbreviation  qualifier.sign  reported.measurement
1  C[C@@H](O)[C@H]1C(=O)N2C(C(=O)O)=C(S[C@@H]3CN[C@H](C(=O)N(C)C)C3)[C@H](C)[C@H]12          MIC90              µg/mL               =                    32
2  CC(C)(O/N=C(\C(=O)N[C@@H]1C(=O)N(S(=O)(=O)O)[C@@H]1COC(=O)CNC(=O)c1cc(=O)c(O)cn1O)c1csc(N)n1)C(=O)O (stereo in doubt)          MIC90              µg/mL               =                    32
3  CC(C)(O/N=C(\C(=O)N[C@@H]1C(=O)N(S(=O)(=O)O)[C@@H]1CNC(=O)c1cc(-c2cc(=O)c(O)cn2O)no1)c1csc(N)n1)C(=O)O (stereo in doubt)          MIC90              µg/mL               =                    16
4  CC(C)(O/N=C(\C(=O)N[C@@H]1C(=O)N(S(=O)(=O)O)[C@@H]1COC(=O)c1cc(-c2cc(=O)c(O)cn2O)no1)c1csc(N)n1)C(=O)O (stereo in doubt)          MIC90              µg/mL               =                     2
5  CC1(C)[C@H](NC(=O)/C(=N\OCc2cc(=O)c(O)cn2O)c2csc(N)n2)C(=O)N1OS(=O)(=O)O (stereo in doubt)          MIC90              µg/mL               >                    64

====

Each item that follows carries a reported fraction unbound.
EXPERIMENTAL DETAILS: Fraction unbound in rat plasma
Type: ADME, cell-free
QUANTITY NAME: fraction unbound

> print(dat)
                                   molecule     quantity.name  reported.measurement
1  CC(C)(O/N=C(\C(=O)N[C@@H]1C(=O)N(S(=O)(=O)O)[C@@H]1COC(=O)c1cc(-c2cc(=O)c(O)cn2O)no1)c1csc(N)n1)C(=O)O (stereo in doubt)  fraction unbound                  0.24
2  CC(C)(O/N=C(\C(=O)N[C@@H]1C(=O)N(S(=O)(=O)O)[C@@H]1CNC(=O)c1cc(-c2cc(=O)c(O)cn2O)no1)c1csc(N)n1)C(=O)O (stereo in doubt)  fraction unbound                  0.33
3  CC(C)(O/N=C(\C(=O)N[C@@H]1C(=O)N(S(=O)(=O)O)[C@@H]1COC(=O)CNC(=O)c1cc(=O)c(O)cn1O)c1csc(N)n1)C(=O)O (stereo in doubt)  fraction unbound                  0.36

====

Each item that follows carries a reported fraction unbound.
EXPERIMENTAL DETAILS: Fraction unbound in human plasma
Assay type: ADME, cell-free
QUANTITY NAME: fraction unbound

> print(dat)
                                   molecule  reported.measurement
1  CC(C)(O/N=C(\C(=O)N[C@@H]1C(=O)N(S(=O)(=O)O)[C@@H]1COC(=O)CNC(=O)c1cc(=O)c(O)cn1O)c1csc(N)n1)C(=O)O (stereo in doubt)                  0.57
2  CC(C)(O/N=C(\C(=O)N[C@@H]1C(=O)N(S(=O)(=O)O)[C@@H]1CNC(=O)c1cc(-c2cc(=O)c(O)cn2O)no1)c1csc(N)n1)C(=O)O (stereo in doubt)                  0.46
3  CC(C)(O/N=C(\C(=O)N[C@@H]1C(=O)N(S(=O)(=O)O)[C@@H]1COC(=O)c1cc(-c2cc(=O)c(O)cn2O)no1)c1csc(N)n1)C(=O)O (stereo in doubt)                  0.32
